From: patent US20210024639A1

Measured cell scattering score, MLP29, 0.111 nM accompanies every entry in the list below.
- Experimental system: native mouse MET on living mouse cells (mouse, UniProt P16056 25-1379)
- Protocol notes: cell-based or functional assay
Express the result in score 0-4 but write the number alone.

Answered examples (3):
Binder	Unit annotation	Numeric value
chimeric llama-human IgG1 mAb 71A3 (antibody, V domains shown) VH: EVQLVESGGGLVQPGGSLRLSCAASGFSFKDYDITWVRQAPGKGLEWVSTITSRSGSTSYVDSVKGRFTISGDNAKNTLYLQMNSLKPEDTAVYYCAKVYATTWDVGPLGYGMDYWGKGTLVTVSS VL: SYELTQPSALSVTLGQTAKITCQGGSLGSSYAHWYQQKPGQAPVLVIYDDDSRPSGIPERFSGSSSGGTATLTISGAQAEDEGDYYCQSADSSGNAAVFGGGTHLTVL	score 0-4	3
chimeric llama-human IgG1 mAb 71C3 (antibody, V domains shown) VH: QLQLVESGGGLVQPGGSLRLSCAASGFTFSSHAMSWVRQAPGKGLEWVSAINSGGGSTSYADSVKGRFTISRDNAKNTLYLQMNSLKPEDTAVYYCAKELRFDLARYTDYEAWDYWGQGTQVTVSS VL: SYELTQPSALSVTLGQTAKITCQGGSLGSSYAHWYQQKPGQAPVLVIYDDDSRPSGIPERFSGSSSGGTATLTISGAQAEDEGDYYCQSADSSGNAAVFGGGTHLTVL	score 0-4	1
chimeric llama-human IgG1 mAb 71G2 (antibody, V domains shown) VH: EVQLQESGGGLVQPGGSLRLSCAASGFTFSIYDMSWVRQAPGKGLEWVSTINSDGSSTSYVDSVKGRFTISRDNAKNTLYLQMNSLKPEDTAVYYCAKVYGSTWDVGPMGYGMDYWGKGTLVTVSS VL: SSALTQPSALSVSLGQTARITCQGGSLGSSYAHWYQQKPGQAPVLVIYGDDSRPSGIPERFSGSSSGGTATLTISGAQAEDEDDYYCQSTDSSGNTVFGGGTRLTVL	score 0-4	4

Task: Request the reported cell scattering score, MLP29, 0.111 nM associated with chimeric llama-human IgG1 mAb 72F8 (antibody, V domains shown) VH: ELQLVESGGGLVQPGGSLRLSCAASGFTFSNYVMSWVRQAPGKGLEWVSDTNSGGSTSYADSVKGRFTISRDNAKNTLYLQMNSLKPEDTALYYCARSFFYGMNYWGKGTQVTVSS VL: QSALTQPPSLSASPGSSVRLTCTLSSGNNIGSYDISWYQQKAGSPPRYLLNYYTDSRKHQDSGVPSRFSGSKDASANAGLLLISGLQPEDEADYYCSAYKSGSYRWVFGGGTHVTVL
Output: 0

Task: Request the reported cell scattering score, MLP29, 0.111 nM associated with chimeric llama-human IgG1 mAb 76H10 (antibody, V domains shown) VH: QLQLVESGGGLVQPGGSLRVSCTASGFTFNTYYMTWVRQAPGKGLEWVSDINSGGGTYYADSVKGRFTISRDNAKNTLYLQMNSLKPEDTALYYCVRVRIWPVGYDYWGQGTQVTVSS VL: QAVVTQEPSLSVSPGGTVTLTCGLSSGSVTTSNYPGWFQQTPGQAPRTLIYNTNNRHSGVPSRFSGSISGNKAALTITGAQPEDEADYYCSLYTGSYTTVFGGGTHLTVL
Output: 0
